We begin with a simple list: items and their reported IC50.
# Measured target: recombinant autotaxin (Homo sapiens)
# Test: Autotaxin assay (Amplex Red, LPC substrate)
# Experimental setup: 75 μM LPC, Amplex Red fluorescence, ten 1:3 dilutions starting at 30 μM

Field: example entries. Status: answers known.
Fc1ccc(Nc2nccc3nc(NCc4ccc(Cl)cc4)ncc23)c(F)c1 [Compound 45]; < 30 µM
COc1ccc(CNc2ncc3c(Nc4cc(OC)ccc4OC)nccc3n2)cc1 [Compound 51]; < 30 µM

Look at this compound and give its reported IC50. COc1ccccc1CNc1ncc2c(Nc3ccc4c(c3)OCCO4)nccc2n1 [Compound 39]
< 30 µM

Look at this compound and give its reported IC50. Fc1ccccc1Nc1nccc2nc(NCc3ccccc3Cl)ncc12 [Compound 100]
< 10 µM

Look at this compound and give its reported IC50. O=C(NCCO)C1CCN(c2nccc3nc(NCc4ccccc4Cl)ncc23)CC1 [Compound 105]
< 30 µM

====

# Measured target: recombinant autotaxin (Homo sapiens, UniProt Q13822)
# Construct: made in house; host or cells: Hi5 insect cells (baculovirus)
# Test: Autotaxin assay (Amplex Red, LPC substrate)
# Format: biochemical
# Experimental setup: 75 μM LPC, Amplex Red fluorescence, ten 1:3 dilutions starting at 30 μM
pIC50: −log10 of the molar value.
We begin with a simple list: items and their reported pIC50.

Field: example entries. Status: answers known.
COc1ccc(CNc2ncc3c(N4CCCC(C(=O)N5CCN(c6ccccn6)CC5)C4)nccc3n2)cc1 (stereo not shown); > 4.52
CCN(CC)C(=O)C1CCN(c2nccc3nc(NCc4ccccc4OC)ncc23)CC1; > 5.00
COc1ccc(Nc2nccc3nc(NCc4ccccc4Cl)ncc23)cc1; > 4.52

Here is the next item to consider.
Look at this molecule and give its reported pIC50. CN(C)C(=O)C1CCN(c2nccc3nc(NCc4ccccc4Cl)ncc23)CC1
> 4.52

====

# Measured target: recombinant autotaxin (Homo sapiens)
# Test: Autotaxin assay (Amplex Red, LPC substrate)
# Experimental setup: 75 μM LPC, Amplex Red fluorescence, ten 1:3 dilutions starting at 30 μM
We begin with a simple list: items and their reported IC50.

Field: example entries. Status: answers known.
CC(C)NC(=O)C1CCN(c2nccc3nc(NCc4ccccc4Cl)ncc23)CC1 [Compound 67]; < 5 µM
COc1ccc(CNc2ncc3c(Nc4ccc5c(c4)OCO5)nccc3n2)cc1 [Compound 53]; < 30 µM

Here is the next item to consider.
State its IC50 on recombinant autotaxin (Homo sapiens): CCOCCCNC(=O)C1CCCN(c2nccc3nc(NCc4ccccc4Cl)ncc23)C1 (stereo not drawn) [Compound 88]
< 10 µM

Reference source for all entries: patent US8530650B2
